# TESTED_SYSTEM: T1, human CDH6 on tumor cells (OVCAR3 cells, PA-1 cells) (human, UniProt P55285 54-790)
# T1 sequence: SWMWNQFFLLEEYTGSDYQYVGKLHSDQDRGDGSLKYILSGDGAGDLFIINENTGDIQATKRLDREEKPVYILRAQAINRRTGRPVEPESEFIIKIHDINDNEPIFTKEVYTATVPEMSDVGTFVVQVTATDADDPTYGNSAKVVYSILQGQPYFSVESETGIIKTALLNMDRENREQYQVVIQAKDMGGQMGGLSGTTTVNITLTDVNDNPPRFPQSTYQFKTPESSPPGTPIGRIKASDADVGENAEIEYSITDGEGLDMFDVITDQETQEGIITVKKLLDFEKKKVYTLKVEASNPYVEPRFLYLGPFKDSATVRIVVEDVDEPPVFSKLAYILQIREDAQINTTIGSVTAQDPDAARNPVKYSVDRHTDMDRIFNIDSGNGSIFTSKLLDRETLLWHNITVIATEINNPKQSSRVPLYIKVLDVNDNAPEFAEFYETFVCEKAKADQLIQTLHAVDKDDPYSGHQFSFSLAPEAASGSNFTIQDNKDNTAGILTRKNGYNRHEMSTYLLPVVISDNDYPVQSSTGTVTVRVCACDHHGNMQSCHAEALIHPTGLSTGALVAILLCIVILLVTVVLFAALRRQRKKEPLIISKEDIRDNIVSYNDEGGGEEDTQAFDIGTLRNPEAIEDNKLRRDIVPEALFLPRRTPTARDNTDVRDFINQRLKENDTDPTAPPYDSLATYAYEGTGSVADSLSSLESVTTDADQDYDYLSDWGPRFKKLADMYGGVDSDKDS
# PROCEDURE_DETAILS: FACS, OVCAR3 cells
OBSERVATION_TYPE: Max MFI (MFI)
Use MFI as the unit, but write only the number.

>  <BINDER>
CHI-CDH6-8 (antibody, human IgG1, kappa, V domains shown, also called chimeric antibody of murine CDH6-8) VH: EVQLQQSGPELVKPGDSVKMSCKASGYTFTDYYMAWIKQNHGKSLEWIGYIYPNNGGTDYNQKFRGKATLTVDKSSSAAYMELHSLTSEDSAVYYCAREIGTLYGDYYAMDYWGQGTSVTVSS VL: DIQMTQSPASLSASVGETVTITCRASENIDSYLAWYQQKQGKSPQLLVYTATLLADGVPSRFSGSGSGTQYSLKINSLQSEDVARYYCQHYYSTPPTFGSGTKLEIKR

>  <Max MFI (MFI)>
16100

$$$$
>  <BINDER>
CHI-CDH6-14 (antibody, human IgG1, kappa, V domains shown, also called CHI-hCDH6-14; CH1-CDH6-14) VH: QIQLQQSGPELVKPGTSVKISCKASGYTFTDNYINWVRQRPGQGLEWIGWIYPGTGNSYYNEKFKGKATLTVDTSSSTAYMQFSSLTSEDSAVYLCASSYGDSFDYWGQGTTLTVSS VL: DIQMTQTTSSLSASLGNRVTISCRASQDIRNYLNWYQQKPDGTFKLLISYTSRLHSGVPSRFSGSGSGTDYSLTVSNLEPEDIATYYCQQYSQLPWTFGGGSRLEIKR

>  <Max MFI (MFI)>
15700

$$$$
>  <BINDER>
CHI-CDH6-13 (antibody, human IgG1, kappa, V domains shown, also called chimeric antibody of murine CDH6-13) VH: DVQLQESGPGLVKPSQSLSLTCSVTGYSITKDSYWNWIRQFPGSKLEWMGFISYDGSRHYNPSLKNRISITRDTSKNQFFLQLNSVTTEDTATYYCARRDYADYWGQGTTLTVSS VL: QIVLTQSPALMSAFPGEKVTMTCSATSSVSYIYWYQQKPRSSPKPWIYLTSNLASGVPARFSGSGSGTSYSLTINSLEAEDAATYYCQQWSSIPYTFGGGTKLEIKR

>  <Max MFI (MFI)>
17600

$$$$
>  <BINDER>
CHI-CDH6-3 (antibody, human IgG1, kappa, V domains shown, also called CH1-CDH6-3; chimeric antibody of murine CDH6-3) VH: QVQLQQPGAELVKPGASVKLSCKASGYTFTSYWIHWVKQRPGQGLEWIGEINPSNGVTNCNENFKSKATLTVDKSSSTAYMQLSSLTSEDSAVYYCTIPNLLWWYFDVWGAGTTVTVSS VL: DIQMTQSPASLSVSVGETVTITCRASENIYSNLAWYQQKQGKSPQLLVYEATNLADGVPSRFSGSGSGTQYSLKINSLQSEDFGSYYCQHFWGTLWTFGGGTKLEIKR

>  <Max MFI (MFI)>
15500

$$$$
>  <BINDER>
CHI-CDH6-4 (antibody, human IgG1, kappa, V domains shown, also called CH1-CDH6-4; chimeric antibody of murine CDH6-4) VH: QVQLQQSGPELVKPGASVKISCKASGYAFSNFWMNWVKQRPGKGLEWIGWIYPGDGDTNYNGKFKDKATLTADKSSSTAYIQLSSLTSEDSAVYFCARLYDAWGFFDYWGQGTTLTVSS VL: QIVLTQSPAIMSASPGQKVTITCSASSSVNYMHWYQQKLGSSPKLWIYDKSKLAPGVPARFSGSGSGTSYSLTISSMEAEDAASYFCHQWSSYPPMTFGGGTKLEIKR

>  <Max MFI (MFI)>
14000

$$$$

Req: Hello, please tell me recorded Max MFI for this one: CHI-CDH6-7 (antibody, human IgG1, kappa, V domains shown, also called CH1-CDH6-7; chimeric antibody of murine CDH6-7) VH: EVKLVESGGGLVKPGGSLKVSCAASGFTFSDHGMAWVRQAPGKGPEWVAFISNLAYSIYYADTVTGRFTISRENAKNTLYLEMSSLRSEDTAMYYCARVYVKWYFDVWGAGTTVTVSS VL: DIQMTQSPASLSASVGETVTITCRASENIDSYLAWYQQKQGKSPQLLVFAATLLADGVPSRFSGSGSGTQYSLKINSLQSEDVARYYCQHYYSTPLTFGAGTKLELKR
Resp: 12000
